# Kp annotations
# experiment-summary: PK (free brain-to-free plasma ratio) (mouse)
# Type: in vivo
# experimental-parameters: male CD-1 mice, oral gavage 10 mg/kg, unbound brain-to-unbound plasma, read-out: B/P ratio (free)
Structures can show the parent of a compound that is named as a salt.

Observe how each entry below is paired with its result.
{"compound": "Cn1cnc2ccc(Nc3c(F)c(F)cc(NS(=O)(=O)N4CC5CC4C5)c3Cl)c(F)c2c1=O [Example 41, trifluoroacetate]", "Kp": "0.35 to 0.45"}
{"compound": "Cn1cnc2ccc(Nc3c(F)ccc(NS(=O)(=O)N4CCCC4)c3Cl)c(F)c2c1=O [Example 7, trifluoroacetate]", "Kp": "0.37 to 0.61"}
{"compound": "Cn1cnc2ccc(Nc3c(F)ccc(NS(=O)(=O)N4CC5CC4C5)c3Cl)c(F)c2c1=O", "Kp": "0.75 to 0.93"}

Kp measured on Cn1cnc2ccc(Nc3c(F)ccc(NS(=O)(=O)N4CC5CC4C5)c3Cl)c(Cl)c2c1=O [Example 9, trifluoroacetate] = 0.36 to 0.4

----------
# Test system: H1755 cells
# experiment-summary: Cellular phospho-ERK inhibition assay in H1755 cells
# Format: cell-based
# experimental-parameters: Homo sapiens, NCI-H1755, 2 hours treatment, read-out: H1755 Cell IC50
pIC50: −log10 of the molar value.
value-kind: pIC50

Observe how each entry below is paired with its result.
{"molecule": "Cn1cnc2ccc(Nc3c(F)ccc(NS(=O)(=O)N4CC(F)(F)C4)c3Cl)c(F)c2c1=O [Example 136]", "pIC50": 7.05}
{"molecule": "CN(C)S(=O)(=O)Nc1ccc(F)c(Nc2ccc3ncn(C)c(=O)c3c2F)c1Cl [Example 83]", "pIC50": 6.81}
{"molecule": "CO[C@@H]1CCN(S(=O)(=O)Nc2ccc(F)c(Nc3ccc4ncn(C)c(=O)c4c3Cl)c2Cl)C1 [Example 6]", "pIC50": 7.18}

[a] CO[C@@H]1CCN(S(=O)(=O)Nc2ccc(F)c(Nc3ccc4ncn(C)c(=O)c4c3F)c2Cl)C1 [Example 5]
[b] Cc1c(Oc2c(F)ccc(NS(=O)(=O)N3CC[C@@H](F)C3)c2Cl)ccc2ncn(C)c(=O)c12 [Example 70]
[c] Cn1cnc2ccc(Oc3c(F)ccc(NS(=O)(=O)N4CC5CC4C5)c3Cl)c(Cl)c2c1=O [Example 67]
query: Order the items by recorded pIC50; the first position goes to the largest value. Reply format: the labels, ordered as requested.
result: a, b, c
(a: 7.70, b: 7.37, c: 7.12)

----------
# target-or-system: P-gp (MDR1) (Homo sapiens (Human))
# Sequence (P08183 whole entry, species assumed): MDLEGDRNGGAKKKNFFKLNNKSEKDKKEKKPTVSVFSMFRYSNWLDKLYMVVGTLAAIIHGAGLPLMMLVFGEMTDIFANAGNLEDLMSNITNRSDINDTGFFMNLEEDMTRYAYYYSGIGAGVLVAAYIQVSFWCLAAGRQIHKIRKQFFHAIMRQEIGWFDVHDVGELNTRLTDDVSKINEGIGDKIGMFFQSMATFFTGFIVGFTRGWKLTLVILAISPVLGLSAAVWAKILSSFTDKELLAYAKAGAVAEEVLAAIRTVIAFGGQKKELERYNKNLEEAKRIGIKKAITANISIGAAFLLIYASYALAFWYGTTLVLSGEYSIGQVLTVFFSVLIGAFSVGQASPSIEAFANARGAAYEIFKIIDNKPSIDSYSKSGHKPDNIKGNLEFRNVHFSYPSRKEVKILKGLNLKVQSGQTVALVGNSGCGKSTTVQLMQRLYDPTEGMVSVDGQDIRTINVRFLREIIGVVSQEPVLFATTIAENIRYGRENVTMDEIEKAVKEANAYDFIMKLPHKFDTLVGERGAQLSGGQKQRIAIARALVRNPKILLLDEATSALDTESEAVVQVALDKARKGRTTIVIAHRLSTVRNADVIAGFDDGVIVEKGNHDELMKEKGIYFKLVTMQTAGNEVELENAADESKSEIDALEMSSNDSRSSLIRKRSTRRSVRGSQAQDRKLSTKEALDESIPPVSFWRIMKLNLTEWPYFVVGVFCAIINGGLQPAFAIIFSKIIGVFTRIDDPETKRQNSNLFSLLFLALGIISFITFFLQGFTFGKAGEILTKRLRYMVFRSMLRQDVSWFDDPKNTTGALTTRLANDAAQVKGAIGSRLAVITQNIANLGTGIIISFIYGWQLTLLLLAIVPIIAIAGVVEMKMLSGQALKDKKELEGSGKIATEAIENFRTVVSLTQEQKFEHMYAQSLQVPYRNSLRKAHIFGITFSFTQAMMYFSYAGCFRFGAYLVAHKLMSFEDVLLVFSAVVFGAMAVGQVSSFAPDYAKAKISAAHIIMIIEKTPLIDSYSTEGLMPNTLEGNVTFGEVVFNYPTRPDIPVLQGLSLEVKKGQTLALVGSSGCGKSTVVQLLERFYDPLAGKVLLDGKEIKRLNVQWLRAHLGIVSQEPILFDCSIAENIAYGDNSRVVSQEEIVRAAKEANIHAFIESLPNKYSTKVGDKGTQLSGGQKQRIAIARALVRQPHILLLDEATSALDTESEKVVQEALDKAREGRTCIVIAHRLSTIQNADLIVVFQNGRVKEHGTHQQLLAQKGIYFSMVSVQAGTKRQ
# experiment-summary: MDR1 LLC-PK1 permeability assay: efflux ratio
# Format: in vitro ADME
# experimental-parameters: pig
Counter-ions that a name gives are not always drawn.
value-kind: efflux ratio at 2 h, 1 µM

Observe how each entry below is paired with its result.
{"compound": "Cn1cnc2ccc(Nc3c(F)ccc(NS(=O)(=O)N4CC[C@@H](F)C4)c3Cl)c(F)c2c1=O", "result": 3.2}
{"compound": "Cn1cnc2ccc(Nc3c(F)ccc(NS(=O)(=O)N4CCCC4)c3Cl)c(F)c2c1=O [Example 7, trifluoroacetate]", "result": 1.7}

[a] Cc1c(Nc2c(F)ccc(NS(=O)(=O)N3CC4CC4(F)C3)c2Cl)ccc2ncn(C)c(=O)c12 (stereo not shown)
[b] CO[C@@H]1CCN(S(=O)(=O)Nc2ccc(F)c(Nc3ccc4ncn(C)c(=O)c4c3F)c2Cl)C1
query: // returns a or b , whichever has the lower efflux ratio at 2 h, 1 µM Give the label under which the chosen entry appears.
result: a
(a: 1.2, b: 3.8)

----------
# target-or-system: full-length FLAG-tagged B-Raf(V600E) (Homo sapiens (Human), UniProt P15056, V600E)
# Sequence (P15056 whole entry V600E): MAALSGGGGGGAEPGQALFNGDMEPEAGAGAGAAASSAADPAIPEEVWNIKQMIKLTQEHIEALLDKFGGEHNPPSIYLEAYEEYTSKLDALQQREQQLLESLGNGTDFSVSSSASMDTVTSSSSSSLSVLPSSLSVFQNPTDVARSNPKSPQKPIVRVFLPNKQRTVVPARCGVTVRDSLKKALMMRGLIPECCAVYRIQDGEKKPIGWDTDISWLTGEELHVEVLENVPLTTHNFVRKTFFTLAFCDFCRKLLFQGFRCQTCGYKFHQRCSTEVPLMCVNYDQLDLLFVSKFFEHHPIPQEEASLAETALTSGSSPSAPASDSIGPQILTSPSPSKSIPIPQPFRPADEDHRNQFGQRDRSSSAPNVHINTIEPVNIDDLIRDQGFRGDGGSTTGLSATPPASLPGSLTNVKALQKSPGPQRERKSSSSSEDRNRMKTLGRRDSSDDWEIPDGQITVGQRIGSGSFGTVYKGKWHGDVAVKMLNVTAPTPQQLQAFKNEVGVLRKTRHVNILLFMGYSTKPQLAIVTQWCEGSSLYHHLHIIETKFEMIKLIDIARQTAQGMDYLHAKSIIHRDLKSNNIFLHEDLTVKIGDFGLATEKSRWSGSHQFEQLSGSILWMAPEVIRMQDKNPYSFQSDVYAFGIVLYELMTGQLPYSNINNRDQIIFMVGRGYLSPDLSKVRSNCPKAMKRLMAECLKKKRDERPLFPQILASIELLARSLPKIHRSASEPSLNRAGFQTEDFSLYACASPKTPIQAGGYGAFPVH
# experiment-summary: BRAF V600E enzyme assay (TR-FRET competitive displacement)
# Format: binding
# experimental-parameters: averaged IC50; TR-FRET tracer displacement, 60 min
pIC50: −log10 of the molar value. Where a name gives a salt, the structure may show the parent alone.
value-kind: pIC50

Observe how each entry below is paired with its result.
{"compound": "COCC1CN(S(=O)(=O)Nc2ccc(F)c(Oc3ccc4ncn(C)c(=O)c4c3C)c2Cl)C1 [Example 115]", "pIC50": 8.00}
{"compound": "Cc1c(Nc2c(F)c(F)cc(NS(=O)(=O)N(C)C)c2Cl)ccc2ncn(C)c(=O)c12 [Example 98]", "pIC50": 7.70}
{"compound": "O=c1c2c(F)c(Nc3c(F)ccc(NS(=O)(=O)N4CCCC4)c3Cl)ccc2ncn1CF [Example 42, trifluoroacetate]", "pIC50": 8.70}
{"compound": "Cc1c(Nc2c(F)ccc(NS(=O)(=O)N3C[C@H](F)[C@@H](F)C3)c2Cl)ccc2ncn(C)c(=O)c12 (relative stereo) [Example 85]", "pIC50": 7.28}
{"compound": "CO[C@@H]1CCN(S(=O)(=O)Nc2ccc(F)c(Nc3ccc4ncn(C)c(=O)c4c3F)c2Cl)C1 [Example 5]", "pIC50": 7.85}
{"compound": "CO[C@@H]1CCN(S(=O)(=O)Nc2ccc(F)c(Nc3ccc4ncn(C)c(=O)c4c3Br)c2Cl)C1 [Example 8, trifluoroacetate]", "pIC50": 8.00}

[A] Cn1cnc2ccc(Nc3c(F)ccc(NS(=O)(=O)N4CCCC4)c3Cl)c(Br)c2c1=O [Example 11, trifluoroacetate]
[B] COC1CN(S(=O)(=O)Nc2ccc(F)c(Nc3ccc4ncn(C)c(=O)c4c3Cl)c2Cl)C1 [Example 129]
query: Param pair: A , B . Output: the one whose pIC50 is numerically greater. Give the label under which the chosen entry appears.
result: A

[I] Cc1c(Nc2c(F)ccc(NS(=O)(=O)N3CC[C@@H](F)C3)c2F)ccc2ncn(C)c(=O)c12 [Example 114, trifluoroacetate]
[II] Cn1cnc2ccc(Nc3c(F)ccc(NS(=O)(=O)N4CC5CC4C5)c3Cl)c(Cl)c2c1=O [Example 9, trifluoroacetate]
[III] COC1CCN(S(=O)(=O)Nc2ccc(F)c(Nc3ccc4ncn(C)c(=O)c4c3C)c2Cl)CC1 [Example 75, trifluoroacetate]
[IV] Cc1c(Nc2c(F)c(F)cc(NS(=O)(=O)N3CC4CC4C3)c2Cl)ccc2ncn(C)c(=O)c12 (centres unmarked) [Example 102]
[V] Cc1c(Nc2c(F)c(F)cc(NS(=O)(=O)N3CCCC3)c2Cl)ccc2ncn(C)c(=O)c12 [Example 96]
query: Put the items in order so that reported pIC50 rises from first to last. Reply format: the labels, ordered as requested.
result: III, I, II, V, IV

----------
# System: H1755 cells
# experiment-summary: Cellular phospho-ERK inhibition assay in H1755 cells
# Assay type: cell-based
# experimental-parameters: Homo sapiens, NCI-H1755, 2 hours treatment, read-out: H1755 Cell IC50
Counter-ions that a name gives are not always drawn.
value-kind: IC50 (nM)

{"molecule": "Cn1cnc2ccc(Nc3c(F)ccc(NS(=O)(=O)N4CC5CC4C5)c3Cl)c(F)c2c1=O [Example 13]", "value-kind": "IC50", "display-unit": "nM", "result": 78}
{"molecule": "[2H]C([2H])([2H])O[C@@H]1CCN(S(=O)(=O)Nc2ccc(F)c(Nc3ccc4ncn(C)c(=O)c4c3C)c2Cl)C1 [Example 55, trifluoroacetate]", "value-kind": "IC50", "display-unit": "nM", "result": 124}
{"molecule": "Cc1c(Nc2c(F)ccc(NS(=O)(=O)N3C[C@@H](F)[C@@H](F)C3)c2Cl)ccc2ncn(C)c(=O)c12 [Example 90]", "value-kind": "IC50", "display-unit": "nM", "result": 127}
{"molecule": "CO[C@H]1CN(S(=O)(=O)Nc2cc(F)c(F)c(Nc3ccc4ncn(C)c(=O)c4c3C)c2Cl)C[C@H]1F (relative stereo) [Example 100]", "value-kind": "IC50", "display-unit": "nM", "result": 293}
{"molecule": "Cn1cnc2ccc(Nc3c(F)ccc(NS(=O)(=O)N4CCCC4)c3Cl)c(Br)c2c1=O [Example 11, trifluoroacetate]", "value-kind": "IC50", "display-unit": "nM", "result": 75}

[1] Cn1cnc2ccc(Nc3cc(Cl)cc(NS(=O)(=O)N4CC[C@@H](F)C4)c3F)c(F)c2c1=O [Example 58, trifluoroacetate]
[2] CCN(C)S(=O)(=O)Nc1cc(F)c(F)c(Nc2ccc3ncn(C)c(=O)c3c2C)c1Cl [Example 97]
query: Param pair: 1 , 2 . Output: the one whose IC50 is numerically greater. Give the label under which the chosen entry appears.
result: 2

----------
# target-or-system: full-length FLAG-tagged B-Raf(V600E) (Homo sapiens (Human), UniProt P15056, V600E)
# experiment-summary: BRAF V600E enzyme assay (TR-FRET competitive displacement)
# Assay type: binding
# experimental-parameters: averaged IC50; TR-FRET tracer displacement, 60 min
Counter-ions that a name gives are not always drawn.
value-kind: IC50 (nM)

{"molecule": "Cc1c(Nc2cc(F)cc(NS(=O)(=O)N3CCCC3)c2Cl)ccc2ncn(C)c(=O)c12 [Example 150]", "value-kind": "IC50", "result": 18}
{"molecule": "CCOC1CN(S(=O)(=O)Nc2ccc(F)c(Nc3ccc4ncn(C)c(=O)c4c3F)c2Cl)C1 [Example 142]", "value-kind": "IC50", "result": 24}
{"molecule": "Cn1cnc2ccc(Oc3c(F)ccc(NS(=O)(=O)N4CCCC4)c3Cl)c(F)c2c1=O [Example 44, trifluoroacetate]", "value-kind": "IC50", "result": 2}
{"molecule": "Cn1cnc2ccc(Nc3c(F)c(F)cc(NS(=O)(=O)N4CCCC4)c3Cl)c(F)c2c1=O [Example 40, trifluoroacetate]", "value-kind": "IC50", "result": 2}
{"molecule": "CO[C@@H]1CCN(S(=O)(=O)Nc2ccc(F)c(Oc3ccc4ncn(C)c(=O)c4c3Cl)c2Cl)C1 [Example 37]", "value-kind": "IC50", "result": 4}

[a] CO[C@@H]1CCN(S(=O)(=O)Nc2cc(F)c(F)c(Nc3ccc4ncn(C)c(=O)c4c3C)c2Cl)C1 [Example 99]
[b] CCN(C)S(=O)(=O)Nc1cc(F)c(F)c(Nc2ccc3ncn(C)c(=O)c3c2C)c1Cl [Example 97]
query: // returns a or b , whichever has the lower IC50 Give the label under which the chosen entry appears.
result: a
